- target: HiBit-WIZ fusion protein (Homo sapiens, UniProt O95785+Q96SW2)
- Sequence (O95785 whole entry, the tested form may be a part): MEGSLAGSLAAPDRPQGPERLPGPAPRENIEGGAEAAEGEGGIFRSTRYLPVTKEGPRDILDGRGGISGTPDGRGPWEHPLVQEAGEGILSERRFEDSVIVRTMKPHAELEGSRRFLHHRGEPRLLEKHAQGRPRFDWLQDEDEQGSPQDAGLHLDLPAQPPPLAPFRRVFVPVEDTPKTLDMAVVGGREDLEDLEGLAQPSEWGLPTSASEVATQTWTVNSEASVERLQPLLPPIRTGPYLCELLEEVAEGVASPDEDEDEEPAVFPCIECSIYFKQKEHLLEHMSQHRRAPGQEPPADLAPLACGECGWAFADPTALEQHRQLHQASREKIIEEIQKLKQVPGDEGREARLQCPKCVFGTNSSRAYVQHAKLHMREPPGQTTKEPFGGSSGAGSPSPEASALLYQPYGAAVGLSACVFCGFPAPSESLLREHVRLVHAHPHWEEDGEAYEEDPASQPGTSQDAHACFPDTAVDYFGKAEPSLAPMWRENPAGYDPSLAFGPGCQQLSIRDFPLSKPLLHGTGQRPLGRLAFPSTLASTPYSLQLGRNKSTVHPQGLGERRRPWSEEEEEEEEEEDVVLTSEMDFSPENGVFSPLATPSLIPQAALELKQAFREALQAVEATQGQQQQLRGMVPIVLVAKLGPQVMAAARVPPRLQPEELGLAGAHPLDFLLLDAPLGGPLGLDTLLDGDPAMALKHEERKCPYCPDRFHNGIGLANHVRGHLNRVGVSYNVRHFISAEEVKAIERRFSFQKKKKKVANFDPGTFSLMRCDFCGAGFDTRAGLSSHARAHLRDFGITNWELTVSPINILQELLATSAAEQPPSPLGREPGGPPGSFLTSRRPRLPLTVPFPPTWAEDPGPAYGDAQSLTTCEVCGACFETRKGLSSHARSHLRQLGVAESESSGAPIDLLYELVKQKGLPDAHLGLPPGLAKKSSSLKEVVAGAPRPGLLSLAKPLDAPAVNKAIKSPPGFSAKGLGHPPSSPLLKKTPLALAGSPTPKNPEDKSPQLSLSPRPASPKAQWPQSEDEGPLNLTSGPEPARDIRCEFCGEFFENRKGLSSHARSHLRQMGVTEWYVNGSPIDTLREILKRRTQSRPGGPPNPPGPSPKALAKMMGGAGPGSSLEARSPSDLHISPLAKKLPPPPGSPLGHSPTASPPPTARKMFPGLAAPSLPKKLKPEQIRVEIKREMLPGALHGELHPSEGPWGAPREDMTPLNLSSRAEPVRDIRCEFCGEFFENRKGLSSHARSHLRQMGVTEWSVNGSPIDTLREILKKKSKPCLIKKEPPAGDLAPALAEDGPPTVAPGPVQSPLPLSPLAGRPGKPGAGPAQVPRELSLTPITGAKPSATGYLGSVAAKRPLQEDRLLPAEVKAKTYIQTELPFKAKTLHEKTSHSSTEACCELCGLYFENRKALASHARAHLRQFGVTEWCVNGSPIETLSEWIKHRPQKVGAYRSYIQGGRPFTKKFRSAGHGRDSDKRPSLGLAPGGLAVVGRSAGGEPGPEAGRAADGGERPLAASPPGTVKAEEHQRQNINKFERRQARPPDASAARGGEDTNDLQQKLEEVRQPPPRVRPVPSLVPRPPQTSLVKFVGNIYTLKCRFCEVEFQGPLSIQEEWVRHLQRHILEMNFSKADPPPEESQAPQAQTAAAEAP
- Sequence (Q96SW2 whole entry, the tested form may be a part): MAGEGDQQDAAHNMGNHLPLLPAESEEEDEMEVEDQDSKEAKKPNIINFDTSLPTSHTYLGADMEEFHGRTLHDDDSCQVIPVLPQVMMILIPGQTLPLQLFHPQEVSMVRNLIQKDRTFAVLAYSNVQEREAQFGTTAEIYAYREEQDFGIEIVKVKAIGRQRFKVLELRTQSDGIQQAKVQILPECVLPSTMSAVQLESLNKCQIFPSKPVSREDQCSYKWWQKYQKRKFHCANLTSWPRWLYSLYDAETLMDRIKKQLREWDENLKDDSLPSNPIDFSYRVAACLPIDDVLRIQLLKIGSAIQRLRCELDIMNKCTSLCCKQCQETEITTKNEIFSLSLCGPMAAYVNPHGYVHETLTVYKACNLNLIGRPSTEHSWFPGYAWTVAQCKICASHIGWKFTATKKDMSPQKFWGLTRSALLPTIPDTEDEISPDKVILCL
- Sequence (Q16531 whole entry partner, the tested form may be a part): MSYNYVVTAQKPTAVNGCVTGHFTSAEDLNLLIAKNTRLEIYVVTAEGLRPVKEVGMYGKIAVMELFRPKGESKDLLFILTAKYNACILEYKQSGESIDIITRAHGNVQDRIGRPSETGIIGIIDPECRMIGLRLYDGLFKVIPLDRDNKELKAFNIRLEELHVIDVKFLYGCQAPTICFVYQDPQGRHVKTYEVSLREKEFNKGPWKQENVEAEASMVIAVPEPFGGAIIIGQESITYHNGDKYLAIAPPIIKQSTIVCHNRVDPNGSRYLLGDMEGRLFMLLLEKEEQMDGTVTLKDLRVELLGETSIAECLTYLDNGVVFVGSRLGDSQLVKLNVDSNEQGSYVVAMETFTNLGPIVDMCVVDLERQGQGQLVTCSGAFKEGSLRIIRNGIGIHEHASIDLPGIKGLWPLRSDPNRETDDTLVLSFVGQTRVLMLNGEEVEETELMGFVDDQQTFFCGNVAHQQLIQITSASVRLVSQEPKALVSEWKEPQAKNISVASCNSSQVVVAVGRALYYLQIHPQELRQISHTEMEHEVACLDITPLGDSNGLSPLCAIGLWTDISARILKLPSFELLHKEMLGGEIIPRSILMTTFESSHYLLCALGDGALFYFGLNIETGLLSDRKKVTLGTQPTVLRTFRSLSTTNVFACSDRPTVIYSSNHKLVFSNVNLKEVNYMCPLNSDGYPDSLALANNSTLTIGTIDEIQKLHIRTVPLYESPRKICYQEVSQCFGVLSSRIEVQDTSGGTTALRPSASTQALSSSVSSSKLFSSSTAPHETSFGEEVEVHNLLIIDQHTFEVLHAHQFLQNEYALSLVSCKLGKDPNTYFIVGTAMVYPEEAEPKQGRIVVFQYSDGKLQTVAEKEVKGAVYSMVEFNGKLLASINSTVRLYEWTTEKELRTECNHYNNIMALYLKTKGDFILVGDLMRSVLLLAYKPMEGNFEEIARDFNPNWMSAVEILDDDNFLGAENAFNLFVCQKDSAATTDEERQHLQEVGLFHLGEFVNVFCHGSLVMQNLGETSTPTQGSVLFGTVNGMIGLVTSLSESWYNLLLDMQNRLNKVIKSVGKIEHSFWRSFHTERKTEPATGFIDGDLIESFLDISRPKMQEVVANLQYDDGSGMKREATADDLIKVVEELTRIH
- protocol_details: Quantification of WIZ protein levels in HiBit tag fusion protein assay (WIZ HiBit assay in 293T cells)
- Format: cell-based
- Design: dose or concentration left out as unconfirmed
- details: HEK-293T, 100 minus Amax; 293T cells; read-out: % degradation of WIZ (100-Amax)
property_name: Dmax (%)
Report only the number, with the unit % understood.

// Dmax lookup, key: Cc1ncc(CN2CCCC[C@@H]2COc2ccc3c(c2)CN(C2CCC(=O)NC2=O)C3=O)[nH]1 (stereo partly shown) [Compound I-50bp]
65.9

// Dmax lookup, key: O=C1CCC(N2Cc3cc(OC[C@H]4CCCCN4Cc4ccc(C5CCN(CC6CCOCC6)CC5)cc4)ccc3C2=O)C(=O)N1 (stereo partly shown)
51.8

// Dmax lookup, key: O=C1CCC(N2Cc3cc(OC[C@@H]4CCCCN4Cc4cnn(C5CCCCC5)c4)ccc3C2=O)C(=O)N1 (stereo partly shown) [Compound I-50p]
93.2

// Dmax lookup, key: O=C1CCC(N2Cc3cc(OC[C@H]4CCCCN4Cc4cn[nH]c4)ccc3C2=O)C(=O)N1 (stereo partly shown) [Compound I-50an]
82.2

// Dmax lookup, key: COc1ccc(CC(=O)N2CCCC[C@H]2COc2ccc3c(c2)CN(C2CCC(=O)NC2=O)C3=O)cn1 (stereo partly shown) [Compound I-72hk]
9.2

// Dmax lookup, key: CCn1cc(CN2CCCC[C@@H]2COc2ccc3c(c2)CN(C2CCC(=O)NC2=O)C3=O)cn1 (stereo partly shown) [Compound I-50eo]
94

// Dmax lookup, key: O=C1CCC(N2Cc3cc(OC[C@@H]4CCCCN4C(=O)c4cc(-c5ccc(Br)cc5)on4)ccc3C2=O)C(=O)N1 (stereo partly shown) [Compound I-72ak]
78.9
